Exercise: for every item that follows, state its recorded TGI.
tested on: NCI/ADR-RES ovarian; experiment: NCI tumour cell line growth inhibition, 48 h

stdin: State the recorded TGI for this entry: CCC1(CC)SCc2nc3ccccc3n21
stdout: 86 µM

stdin: Try the compound Ic1ccc(Nc2nc3nonc3nc2Nc2ccc(I)cc2)cc1
stdout: > 100 µM

stdin: Try the compound CC(C)(C)OC(=O)NCC(O)CNC(=O)OC(C)(C)C
stdout: > 100 µM

stdin: Try the compound O=[N+]([O-])c1ccc(/C=N/n2c(CO)nc3ccccc32)o1
stdout: 74.7 µM

stdin: Try the compound CC(C)(Cc1ccccc1)NC1=NCCO1
stdout: > 100 µM

stdin: Try the compound COc1ccc(C2CC(=O)CC(c3ccc(OC)cc3)C23C(=O)NC(=O)NC3=O)cc1 (stereo unspecified)
stdout: > 100 µM

stdin: Try the compound Cn1c(=O)c2c(nc(Nc3cc(=O)[nH]c(=O)[nH]3)n2Cc2ccccc2)n(C)c1=O
stdout: > 100 µM

stdin: Try the compound CS(=O)(=O)Nc1ccc(N2Cc3cnc4ccc5[nH]ccc2c5c34)cc1
stdout: > 100 µM

stdin: Try the compound COc1ccc(N2C(=O)C(c3ccccc3)(c3ccccc3)C23C(=O)N(C)c2ccccc23)cc1 (stereo unspecified)
stdout: > 100 µM

stdin: Try the compound CC1CC(N)=Nc2ccccc2N1 (stereo unspecified)
stdout: > 100 µM

stdin: Try the compound COc1ccc2c(c1)CCC1C2CC[C@@]2(C)C1CC1=CC(COC(C)=O)C3C(=O)c4ccccc4C(=O)C3C12 (stereo partly specified)
stdout: > 100 µM

* * *

Exercise: for every item that follows, state its recorded TGI.
system: MCF7 breast; assay: NCI tumour cell line growth inhibition, 48 h

stdin: State the recorded TGI for this entry: COc1ccc(C2CC(c3cccc(Nc4ccncc4)c3)=NN2c2cc(Cl)cc(Cl)c2)cc1 (stereo not given)
stdout: 3.3 µM

stdin: Try the compound COc1cc(/C=C2\CCC(C)C3C2=NN(C(C)=O)C3c2cc(OC)c(OC)c(OC)c2)cc(OC)c1OC (stereo not given)
stdout: > 100 µM

stdin: Try the compound COc1cc(-c2cc(=O)c3c(OC)c(OC)c(OC)c(OC)c3o2)c(OC)c(OC)c1OC
stdout: > 100 µM

stdin: Try the compound C=C(C)[C@@]12OC3(/C=C/C=C/CCCCC)O[C@@H]1[C@@H]1[C@@H]4O[C@]4(CO)[C@@H](O)[C@]4(O)C(=O)C(C)=C[C@H]4[C@@]1(O3)[C@H](C)[C@H]2OC(=O)c1ccccc1
stdout: 3.31 µM

stdin: Try the compound Clc1coc2nc3ccccc3c(Nc3ccc4c(c3)OCO4)c12
stdout: > 100 µM

stdin: Try the compound COc1ccc2nc3ccc(OC)cc3c(S(=O)CCCl)c2c1 (stereo not given)
stdout: > 21.4 µM

stdin: Try the compound O=[N+]([O-])c1ccc(/C=N/n2c(CO)nc3ccccc32)o1
stdout: 15.2 µM

stdin: Try the compound COc1ccc(C(C)NNC(=O)c2ccncc2)c(OC)c1 (stereo not given)
stdout: > 100 µM

stdin: Try the compound O=C(O)c1n[nH]nc1Cl
stdout: > 100 µM

stdin: Try the compound COc1ccc(C(=O)Sc2c(-c3ccccc3)c(=O)n(-c3ccccc3)c(=S)n2-c2ccccc2)cc1
stdout: > 100 µM

stdin: Try the compound CC(C)C1OC23CCCCC2C(C#N)(C#N)C1(C#N)C(=N)O3 (stereo not given)
stdout: 36.6 µM

stdin: Try the compound COc1ccc(N=C2SC(=N/N=c3\sc4ccccc4n3C)SC2=Nc2ccc(OC)cc2)cc1
stdout: > 100 µM

stdin: Try the compound COC(C)(C)C1=CCC(C)CC1 (stereo not given)
stdout: > 100 µM

stdin: Try the compound CCCCCN=Cc1c(O)c(O)c(C(C)C)c2cc(C)c(-c3c(C)cc4c(C(C)C)c(O)c(O)c(C=NCCCCC)c4c3O)c(O)c12
stdout: 27.2 µM

stdin: Try the compound CC(=O)NC1C(OCc2ccccc2)OC(CO)C(O)C1OC(C)C(=O)NC(C)C(=O)NC(CCC(=O)NCCCNc1c2ccccc2nc2cccc([N+](=O)[O-])c12)C(N)=O (stereo not given)
stdout: > 100 µM

stdin: Try the compound Cc1ccc(Cl)cc1Nc1nc(C(F)(F)F)ccc1C(=O)N1CCN(c2ccc(F)cc2)CC1
stdout: 38.7 µM

stdin: Try the compound O=[N+]([O-])c1ccc(C=C2C(Cl)=C(Cl)C(Cl)=C2Cl)cc1
stdout: 10.9 µM

stdin: Try the compound O/N=C1/COC(C(F)(F)F)(C(F)(F)F)C1
stdout: > 100 µM

stdin: Try the compound CCCCCCCCCCCCCCCCCCNc1ccn(C2OC(COP(=O)(O)OCC3OC(n4cc(C)c(=O)[nH]c4=O)CC3O)C(O)C2O)c(=O)n1 (stereo not given)
stdout: > 100 µM

stdin: Try the compound C=C(C)C(CC=C(C)C)CC12CC(CC=C(C)C)C(C)(C)C(CC=C(C)C)(C(=O)C(Cc3ccc(O)c(O)c3)=C1O)C2=O (stereo not given)
stdout: > 100 µM

stdin: Try the compound COc1cc(C2c3cc4c(cc3OC(N3CCCC3)C2C)OCO4)cc(OC)c1O (stereo not given)
stdout: > 100 µM

stdin: Try the compound COc1cc(C(=O)c2cc(C)c3[nH]c4ccc(Cl)cc4c3c2C)cc(OC)c1OC
stdout: 13.2 µM

stdin: Try the compound C=CC1CC12C(=O)C1OC2(C)C2C(=O)c3cc4ccccc4cc3C(=O)C12 (stereo not given)
stdout: > 100 µM

stdin: Try the compound COc1ccc2c(c1)C(C)Cc1c(Cl)ncnc1N2C (stereo not given)
stdout: > 21.9 µM

stdin: Try the compound NNC(N)Nc1ccccc1 (stereo not given)
stdout: > 100 µM

stdin: Try the compound CN1C(=O)N/C(=C\c2ccc(S(=O)(=O)NN)cc2)C1=O
stdout: > 100 µM

stdin: Try the compound COCCOCc1nc(C#N)c(N)o1
stdout: > 100 µM

stdin: Try the compound CNCCCn1cc(C2=C(c3cn(C)c4ccccc34)C(=O)NC2=O)c2ccccc21
stdout: 6.93 µM

stdin: Try the compound CC(C)c1ccc(Nc2ccc3c(OCCCN4CCN(C)CC4)cccc3n2)cc1
stdout: 15 µM

stdin: Try the compound Cc1c2cccnc2c(C)c2c1c1cc(CO)ccc1n2C
stdout: 12.7 µM

stdin: Try the compound O=[N+]([O-])c1ccccc1S(=O)(=O)c1cc(Cl)cc2c1NCCC2
stdout: > 100 µM

stdin: Try the compound COC(=O)Cc1cc(O)c(C/C=C(\C)CC/C=C(\C)C(O)C(=O)C=C(C)C)cc1O (stereo not given)
stdout: 89.5 µM

stdin: Try the compound CNn1c(-c2ccccc2)n[nH]c1=O
stdout: > 100 µM

stdin: Try the compound C=C1CC(c2ccc(OCCCN3C(=O)c4ccccc4C3=O)c(OC)c2)OC1=O (stereo not given)
stdout: 0.48 µM

stdin: Try the compound CCN1CCN(c2ccc(Nc3cc(N(C)C(=O)Nc4c(Cl)c(OC)cc(OC)c4Cl)ncn3)cc2)CC1
stdout: 11.8 µM

stdin: Try the compound Ic1ccc(Nc2nc3nonc3nc2Nc2ccc(I)cc2)cc1
stdout: > 100 µM

stdin: Try the compound O=[N+]([O-])c1cc2oc(COc3ccccc3)nc2cc1Cl
stdout: > 100 µM

stdin: Try the compound COc1nc(C(=O)NNC(=O)c2nc(OC)c3ccccc3c2-c2ccccc2)c(-c2ccccc2)c2ccccc12
stdout: > 100 µM

stdin: Try the compound CNc1ccc(OC)cc1S(=O)(=O)c1ccccc1[N+](=O)[O-]
stdout: > 100 µM

stdin: Try the compound O=Cc1cc2c(cc1-c1c(C=O)ccc3c1OCO3)OCO2
stdout: > 10 µM

* * *

system: 786-0 renal; test: NCI tumour cell line growth inhibition, 48 h
Cut-off 20 µM on TGI, inclusive. At or above means t; below means f.

stdin: Check this compound for TGI at or above 20 µM: COc1ncnc(C2CC2)c1-c1ncc2cnn(Cc3ccc(-c4nc(C(F)(F)F)cn4C(C)C)cc3)c2n1
stdout: t

stdin: Try the compound Cc1cc(N(CCC#N)CCC#N)ccc1/C(N=Nc1ccc([N+](=O)[O-])cc1)=N\NC(=O)c1cc(Cl)ccc1C(=O)c1ccccc1
stdout: t

stdin: Try the compound CCC(=O)NC(Nc1cccc(F)c1C)(C(F)(F)F)C(F)(F)F
stdout: t

stdin: Try the compound COc1ccc(/C=C(/C(=O)c2ccc(Cl)cc2)N2C=CC=CC2=C(C#N)C#N)cc1OC
stdout: f

stdin: Try the compound CNC(=S)N(C)C(=S)Nn1c(=O)c(C)nn(C)c1=S
stdout: t

stdin: Try the compound CCc1nc(N)nc(N)c1-c1ccc2nn(-c3ccccc3)[n+]([O-])c2c1
stdout: f

stdin: Try the compound O=[N+]([O-])c1nccn1CC(O)c1ccc(F)cc1 (stereo not given)
stdout: t

stdin: Try the compound CC(=O)Nc1cc(C(=O)Nc2cc(C(=O)N3CC(CCl)c4c3cc(N)c3ccccc43)nn2C)nn1C (stereo not given)
stdout: f

stdin: Try the compound CC(SC(C)C(=O)N/N=C/c1cccc(Cl)c1)C(=O)N/N=C\c1cccc(Cl)c1 (stereo not given)
stdout: t

stdin: Try the compound NC(Cc1cccc([N+](=O)[O-])c1)C(=O)O (stereo not given)
stdout: t
